tested-target: rP2 × 4R C126A/C149A mutant (Rattus norvegicus, UniProt P51577, C126A/C149A)
Construct: host or cells: Xenopus laevis oocytes
test: ATP concentration–response curves, voltage clamp, C126A/C149A double mutant
Type: cell-based
applied-conditions: ATP EC50, C126A/C149A; +10 µM Zn(II)
observed-property: EC50 (µM)
Field: numeric (µM). Do not append units.

// query Recorded EC50 for Nc1ncnc2c1ncn2[C@@H]1O[C@H](COP(=O)(O)OP(=O)(O)OP(=O)(O)O)[C@@H](O)[C@H]1O [ATP, adenosine triphosphate] , please?
// result 10.1

* * *

tested-target: rP2 × 4R (Rattus norvegicus)
Construct: host or cells: Xenopus laevis oocytes (intranuclear plasmid injection, pcDNA3)
Sequence (P51577 1-388): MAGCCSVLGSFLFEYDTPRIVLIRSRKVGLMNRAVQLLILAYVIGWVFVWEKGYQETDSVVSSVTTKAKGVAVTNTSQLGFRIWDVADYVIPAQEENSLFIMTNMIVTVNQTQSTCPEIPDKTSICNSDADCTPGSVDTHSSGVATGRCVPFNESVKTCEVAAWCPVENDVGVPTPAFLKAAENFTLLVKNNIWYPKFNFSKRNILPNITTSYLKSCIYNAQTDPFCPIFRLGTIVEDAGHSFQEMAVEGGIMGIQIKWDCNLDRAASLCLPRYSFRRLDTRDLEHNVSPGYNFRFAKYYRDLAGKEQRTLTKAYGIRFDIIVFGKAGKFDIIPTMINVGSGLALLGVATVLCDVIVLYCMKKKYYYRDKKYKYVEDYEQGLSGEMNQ
test: ATP concentration–response curves, two-electrode voltage clamp in oocytes expressing wild type rP2 × 4R
Type: cell-based
applied-conditions: ATP EC50, after 300 µM DTNB + 10 µM Zn(II) treatment and washout, Figure S3
observed-property: EC50 (µM)
State the answer as a number, implicitly in µM.

// query Entry Nc1ncnc2c1ncn2[C@@H]1O[C@H](COP(=O)(O)OP(=O)(O)OP(=O)(O)O)[C@@H](O)[C@H]1O [ATP, adenosine triphosphate] : reported EC50 = ?
// result 79.8

* * *

tested-target: rP2 × 4R C126A/C149A mutant (Rattus norvegicus, UniProt P51577, C126A/C149A)
Construct: host or cells: Xenopus laevis oocytes
test: ATP concentration–response curves, voltage clamp, C126A/C149A double mutant
Type: cell-based
applied-conditions: ATP EC50, C126A/C149A; control
observed-property: EC50 (µM)
API: value field is a number in µM; no unit string.

// query Give the measured EC50 of Nc1ncnc2c1ncn2[C@@H]1O[C@H](COP(=O)(O)OP(=O)(O)OP(=O)(O)O)[C@@H](O)[C@H]1O [ATP, adenosine triphosphate] .
// result 22.9

* * *

tested-target: rP2 × 4R C132A/C159A mutant (Rattus norvegicus, UniProt P51577, C132A/C159A)
Construct: host or cells: Xenopus laevis oocytes
Sequence (P51577 1-388 C132A/C159A): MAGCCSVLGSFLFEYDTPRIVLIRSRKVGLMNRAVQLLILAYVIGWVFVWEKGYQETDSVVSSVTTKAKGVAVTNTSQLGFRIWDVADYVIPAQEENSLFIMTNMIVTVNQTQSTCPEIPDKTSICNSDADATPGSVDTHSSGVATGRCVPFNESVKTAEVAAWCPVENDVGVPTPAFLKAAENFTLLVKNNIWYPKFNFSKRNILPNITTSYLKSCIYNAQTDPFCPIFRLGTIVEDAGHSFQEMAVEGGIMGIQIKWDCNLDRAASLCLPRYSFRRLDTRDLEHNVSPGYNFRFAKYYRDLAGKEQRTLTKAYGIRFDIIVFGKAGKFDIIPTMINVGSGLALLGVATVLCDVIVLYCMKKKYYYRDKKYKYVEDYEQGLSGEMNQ
test: ATP concentration–response curves, voltage clamp, C132A/C159A double mutant
Format: cell-based
applied-conditions: ATP EC50, C132A/C159A; control
observed-property: EC50 (µM)
Answer format: numeric, µM implied, no suffix.

// query Any idea what EC50 was measured for Nc1ncnc2c1ncn2[C@@H]1O[C@H](COP(=O)(O)OP(=O)(O)OP(=O)(O)O)[C@@H](O)[C@H]1O [ATP, adenosine triphosphate] ?
// result 77.1

* * *

tested-target: rP2 × 4R (Rattus norvegicus)
Construct: host or cells: Xenopus laevis oocytes (intranuclear plasmid injection, pcDNA3)
test: ATP concentration–response curves, two-electrode voltage clamp in oocytes expressing wild type rP2 × 4R
Type: cell-based
applied-conditions: ATP EC50, NEM treatment + vehicle group; control before treatment (first ATP curve)
observed-property: EC50 (µM)
Write down the numeric answer in µM and omit the unit.

// query Sample Nc1ncnc2c1ncn2[C@@H]1O[C@H](COP(=O)(O)OP(=O)(O)OP(=O)(O)O)[C@@H](O)[C@H]1O [ATP, adenosine triphosphate] — what was its EC50?
// result 23

* * *

tested-target: rP2 × 4R E160Q mutant (Rattus norvegicus, UniProt P51577, E160Q)
Construct: host or cells: Xenopus laevis oocytes
test: ATP concentration–response curves, voltage clamp, E160Q mutant
Type: cell-based
applied-conditions: ATP EC50, E160Q; +10 µM Zn(II)
observed-property: pEC50
Scale: pEC50 equals -log10([C]), with [C] in mol/L.

// query Request: pEC50, test system rP2 × 4R E160Q mutant (Rattus norvegicus, UniProt P51577, E160Q), entry Nc1ncnc2c1ncn2[C@@H]1O[C@H](COP(=O)(O)OP(=O)(O)OP(=O)(O)O)[C@@H](O)[C@H]1O [ATP, adenosine triphosphate]
// result 4.59

* * *

tested-target: rP2 × 4R C132T/C159T mutant (Rattus norvegicus, UniProt P51577, C132T/C159T)
Sequence (P51577 1-388 C132T/C159T): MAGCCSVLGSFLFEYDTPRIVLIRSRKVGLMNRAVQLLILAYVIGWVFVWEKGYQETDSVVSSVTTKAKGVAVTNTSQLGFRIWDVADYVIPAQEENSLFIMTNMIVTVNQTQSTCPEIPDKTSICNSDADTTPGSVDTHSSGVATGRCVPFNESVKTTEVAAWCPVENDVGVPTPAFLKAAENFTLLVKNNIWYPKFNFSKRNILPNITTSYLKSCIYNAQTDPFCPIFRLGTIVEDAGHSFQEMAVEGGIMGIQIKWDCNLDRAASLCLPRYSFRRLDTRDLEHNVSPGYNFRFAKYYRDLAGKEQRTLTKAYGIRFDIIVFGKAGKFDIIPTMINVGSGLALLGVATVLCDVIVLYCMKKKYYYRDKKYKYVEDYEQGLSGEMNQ
test: ATP concentration–response curves, voltage clamp, C132T/C159T double mutant
applied-conditions: control
observed-property: pEC50
The quantity pEC50 is defined as the negative base-10 logarithm of the molar concentration.

// query Recorded pEC50 of Nc1ncnc2c1ncn2[C@@H]1O[C@H](COP(=O)(O)OP(=O)(O)OP(=O)(O)O)[C@@H](O)[C@H]1O [ATP, adenosine triphosphate] , please.
// result 4.56

* * *

tested-target: rP2 × 4R D170N mutant (Rattus norvegicus, UniProt P51577, D170N)
Construct: host or cells: Xenopus laevis oocytes
test: ATP concentration–response curves, voltage clamp, D170N mutant
Type: cell-based
applied-conditions: ATP EC50, D170N; +10 µM Zn(II)
observed-property: pEC50
Schema: pEC50 number; meaning minus log10 of the concentration expressed in molar units.

// query Please tell me: pEC50 of Nc1ncnc2c1ncn2[C@@H]1O[C@H](COP(=O)(O)OP(=O)(O)OP(=O)(O)O)[C@@H](O)[C@H]1O [ATP, adenosine triphosphate] , system rP2 × 4R D170N mutant (Rattus norvegicus, UniProt P51577, D170N)?
// result 4.89

* * *

tested-target: rP2 × 4R C159T mutant (Rattus norvegicus, UniProt P51577, C159T)
Construct: expressed in transfected cells; host or cells: Xenopus laevis oocytes
test: ATP concentration–response curves, voltage clamp, C159T mutant
Type: cell-based
applied-conditions: ATP EC50, C159T; control
observed-property: EC50 (µM)
Please give a number only; it is taken to be in µM.

// query Record Nc1ncnc2c1ncn2[C@@H]1O[C@H](COP(=O)(O)OP(=O)(O)OP(=O)(O)O)[C@@H](O)[C@H]1O [ATP, adenosine triphosphate] : what is its EC50 with rP2 × 4R C159T mutant (Rattus norvegicus, UniProt P51577, C159T)?
// result 37.3

* * *

tested-target: rP2 × 4R C149A mutant (Rattus norvegicus, UniProt P51577, C149A)
Construct: host or cells: Xenopus laevis oocytes
test: ATP concentration–response curves, voltage clamp, C149A mutant
Assay type: cell-based
applied-conditions: ATP EC50, C149A; +10 µM Zn(II)
observed-property: pEC50
Field pEC50 (float): negative decimal logarithm of the concentration in molar.

// query May I ask what pEC50 has been recorded for Nc1ncnc2c1ncn2[C@@H]1O[C@H](COP(=O)(O)OP(=O)(O)OP(=O)(O)O)[C@@H](O)[C@H]1O [ATP, adenosine triphosphate] ?
// result 4.65
